Entries with their measured IC50, system SUV420H1 enzyme (Homo sapiens, UniProt Q4FZB7):
Use µM as the unit, but write only the number.

Recorded result, "O=C(Cn1cc(-c2nnc(NC3CCCC3)c3cc(Cl)c(Cl)cc23)cn1)N1CCOCC1" , IC50: 0.551

Looking up "Clc1cc2c(NC3CCCC3)nnc(-c3ccc(N4CCNCC4)nc3)c2cc1Cl" , I see its IC50 listed as 1.32

Field IC50 (entry "O=C(c1nnc(NC2CCCC2)c2cc(Cl)c(Cl)cc12)N1CCS(=O)(=O)CC1" ) reads 5.06

Recorded IC50 (compound "Clc1cc2c(NC3CCCC3)nnc(-c3ccccc3)c2cc1Cl" ): 28.9

====

Test system: H4K20me3 in PC-3 cells (SUV420H1 cellular activity)
Assay: H4K20me3 Cellular PD Assay (high content microscopy)
Format: cell-based
Settings: Homo sapiens, treated for 72 hours, H4K20me3 immunofluorescence, read-out: H4K20me3 Inhibition EC50
Kindly supply the reported log10(EC50) values for the records listed here.
// do not treat as linear: log10 of EC50, unit nM

Reported log10(EC50) ( "O=C(C1CC1)N1CC=C(c2nnc(NC3CCCC3)c3cc(Cl)c(Cl)cc23)CC1" ) = 4.19

Per the records, this compound ( "OCCNc1ccc(-c2nnc(NC3CCCC3)c3cc(Cl)c(Cl)cc23)cn1" ) has log10(EC50) equal to 2.67

Reported log10(EC50) for NC1CCN(c2cc(-c3nnc(NC4CCCC4)c4cc(Cl)c(Cl)cc34)ccn2)C1 (stereo not shown) was 2.73

Note to self: log10(EC50) recorded for "Clc1cc2c(NC3CCCC3)nnc(N3CCCCC3)c2cc1Cl" was 3.47

Documented log10(EC50) of "O=C(Cn1cc(-c2nnc(NC3CCCC3)c3cc(Cl)c(Cl)cc23)cn1)N1CCC(O)CC1" : 3.82

Item: "Cn1ccc(-c2nnc(NC3CCCC3)c3cc(Cl)c(Cl)cc23)n1" | log10(EC50): 3.06

Measured log10(EC50), "Fc1ccc(-c2nnc(NC3CCCC3)c3cc(Cl)c(Cl)cc23)cn1" : 3.08

# compound "CN1CCN(c2nnc(NC3CCCC3)c3cc(Cl)c(Cl)cc23)CC1" ; its log10(EC50) = 3.54

Entry "CN1CCN(C(=O)Cn2cc(-c3nnc(NC4CCCC4)c4cc(Cl)c(Cl)cc34)cn2)CC1" — recorded log10(EC50) = 3.70
